# TARGET ENTITY: T1, novel mammalian MSOR opioid receptor (methadone-specific opioid receptor) (rat, UniProt P35370 1-367)
# T1 construct: cAMP assays used whole cells; also called LC132; novel mammalian opioid receptor
# T1 chain: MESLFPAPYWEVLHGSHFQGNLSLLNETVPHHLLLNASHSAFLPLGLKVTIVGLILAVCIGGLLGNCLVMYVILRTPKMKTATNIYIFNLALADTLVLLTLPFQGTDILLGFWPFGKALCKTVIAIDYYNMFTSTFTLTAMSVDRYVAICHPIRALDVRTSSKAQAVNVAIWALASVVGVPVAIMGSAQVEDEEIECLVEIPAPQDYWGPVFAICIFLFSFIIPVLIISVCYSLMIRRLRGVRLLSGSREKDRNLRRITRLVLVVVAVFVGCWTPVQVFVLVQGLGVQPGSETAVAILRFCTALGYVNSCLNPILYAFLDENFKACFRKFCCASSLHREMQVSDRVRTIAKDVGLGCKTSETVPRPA
# ASSAY NOTES: saturation radioligand binding (scintillation proximity assay) to membranes of MSOR-transfected CHO cells (LC-7), Scatchard analysis
MEASURED METRIC: Kd (nM)

| BINDER | MEASURED METRIC | UNIT TAG | RESULT |
| --- | --- | --- | --- |
| FGGFTGARKSARKYANQ (monoiodotyrosine at position 14 (125I in the binding assay), made by the chloramine T method, also called I-Y14) [monoiodinated Y14-orphanin FQ] | Kd | nM | 0.3 |
